tested on: EKVX; assay: NCI tumour cell line growth inhibition, 48 h
Activity calls are given as the source filed them. Cut-off read from the data, not from the text of the source: active = GI50 up to about 1.1 µM and inactive = higher.
Measurement kind: GI50

Compound: C[C@H]1ON2CCC[C@@H]2[C@@H]1C(=O)N1C2CC3CCC2(CS1(=O)=O)C3(C)C (stereo partly drawn)
Assayed target: EKVX
Result: > 100 µM (inactive)
--
Compound: Cc1cccc2c1CCC21OC(=O)c2c1ccc1ccccc21 (stereo not drawn)
Assayed target: EKVX
Result: 68.5 µM (inactive)
--
Compound: Cn1cc(C=C(C#N)C#N)c(=O)n(C)c1=O
Assayed target: EKVX
Result: > 100 µM (inactive)
--
Compound: Cc1cc2c(C(C)C)c(O)c(O)c(/C=N\CCO)c2c(O)c1-c1c(C)cc2c(C(C)C)c(O)c(O)c(/C=N/CCO)c2c1O
Assayed target: EKVX
Result: 2.28 µM (inactive)
--
Compound: CCOC(=O)C(=CNc1ccc(N(C2=NCC(C)S2)c2ccc(F)c(Cl)c2)cc1)C(=O)OCC (stereo not drawn)
Assayed target: EKVX
Result: 19.5 µM (inactive)
--
Compound: CC1=CC[C@@]2(CO)[C@@H]([C@@H]1C)[C@H]1CC[C@@H]3[C@@]4(C)CC[C@H](O)C(C)(C)[C@@H]4CC[C@@]3(C)[C@]1(C)C[C@@H]2O
Assayed target: EKVX
Result: 33.3 µM (inactive)
--
Compound: CN1C(=O)c2c(ccc3c2OCO3)C2C(O)Cc3cc4c(cc3C21)OCO4 (stereo not drawn)
Assayed target: EKVX
Result: 3.28 µM (inactive)
--
Compound: C[C@]12CCNC(=O)C=C1CC[C@@H]1C2CC[C@@]2(C)C1CC[C@@H]2OC(=O)COc1ccc(N(CCCl)CCCl)cc1 (stereo partly drawn)
Assayed target: EKVX
Result: 16.1 µM (inactive)

###

GI50 values, listed per item
tested on: COLO 205; experiment: NCI tumour cell line growth inhibition, 48 h
The source made the active and inactive calls. Rule as the data show it: active = GI50 up to about 1.1 µM and inactive = higher.
Measurement kind: GI50

Molecule: COC(=O)N1CC2(CO)C3CC=C(C(=O)Nc4ccccc4Br)C2C1C3Br (stereo not given)
Result: > 50 µM (inactive)

Molecule: Cc1ccc(NC(=O)c2cc(S(=O)(=O)Nc3n[nH]c(=O)n3-c3ccccc3)c(S)cc2Cl)cc1
Result: > 100 µM (inactive)

Molecule: CCc1n[nH]c(=O)n1CC
Result: > 100 µM (inactive)

Molecule: CN(C)CCNc1ccc(NCC[N+](C)(C)Cc2ccc([N+](=O)[O-])cc2)c2c1C(=O)c1c(O)ccc(O)c1C2=O
Result: 27.6 µM (inactive)

Molecule: C[N+](C)(C)CC(=O)N/N=C(/C=C/c1ccccc1)CC1OC(=O)c2ccccc21 (stereo not given)
Result: > 100 µM (inactive)

###

tested on: HL-60; experiment: NCI tumour cell line growth inhibition, 48 h
Active and inactive are the calls of the source. No stated cut-off is given here; in the data, active = GI50 up to about 1.1 µM and inactive = higher.
Possible outcomes: yes for active, no for inactive

Compound: COC(=O)C1=C(OC)[C@H]2C#C/C=C\C#C[C@@H]3Nc4c(cc(O)c5c4C(=O)c4ccccc4C5=O)[C@]24O[C@@]34[C@H]1C
Discrete label: yes
//
Compound: Cc1ccc(S(=O)(=O)NNC2(NS(=O)(=O)c3ccc(Cl)cc3)C(Cl)=C(Cl)C(=O)c3ccccc32)cc1 (centres undefined)
Discrete label: no
//
Compound: COC(=O)n1c(=O)n(-c2ccccc2)c(=O)n1C(=O)OC
Discrete label: no
//
Compound: COc1cc2ccn3c4cc(OC)c(OC)cc4cc3c2cc1OC
Discrete label: no
